systemTested: human GPR4 (Homo sapiens)
Sequence (P46093 whole entry): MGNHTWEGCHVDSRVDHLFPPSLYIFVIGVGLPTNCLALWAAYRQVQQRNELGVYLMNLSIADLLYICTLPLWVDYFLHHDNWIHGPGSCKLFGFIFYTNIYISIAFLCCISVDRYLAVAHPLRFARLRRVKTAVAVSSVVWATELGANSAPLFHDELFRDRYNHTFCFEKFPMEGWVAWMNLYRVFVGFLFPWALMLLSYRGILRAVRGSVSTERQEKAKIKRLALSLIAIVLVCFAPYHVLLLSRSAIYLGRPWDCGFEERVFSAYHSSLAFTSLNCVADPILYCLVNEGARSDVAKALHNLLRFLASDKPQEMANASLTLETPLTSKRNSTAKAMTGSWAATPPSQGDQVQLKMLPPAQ
runDescription: Cell-based assay for human GPR4 activity (pH-induced cAMP formation, HTRF)
testSettings: HeLa cells stably expressing human GPR4, pH-induced cAMP formation
Counter-ions that a name gives are not always drawn.
readoutLabel: log10(IC50) (log10 of the value in nM)
log10 IC50, nM

Check out these entries, answers already filled in.
INSERT INTO results (compound, result) VALUES
  ('CCc1nc2c(C)cc(C)nc2n1Cc1ccc(/C=C/CN2CCN(CCCF)CC2)cc1 [Example 68]', 2.73),
  ('CCc1nc2c(C)cc(C)nc2n1Cc1ccc(CCCCN2CCN(C(C)C)CC2)cc1 [Example 111, dihydrochloride]', 2.61),
  ('CCc1nc2c(C)cc(C)nc2n1Cc1ccc(/C=C/C(=O)N2CCC(N(CC)CC)CC2)cc1 [Example 96]', 3.00);

Okay, now this compound:
Fill blank: measured log10(IC50) of the compound CCc1nc2c(C)cc(C)nc2n1Cc1ccc(CCCCN2CCN(C(C)(C)C)CC2)cc1 [Example 110, dihydrochloride] is ____.
1.99

---

Known pIC50 of a selection of compounds
systemTested: human GPR4 (Homo sapiens)
runDescription: Cell-based assay for human GPR4 activity (pH-induced cAMP formation, HTRF)
testSettings: HeLa cells stably expressing human GPR4, pH-induced cAMP formation
Structures can show the parent of a compound that is named as a salt.
pIC50 field: float, defined as -log10 of concentration (mol/L).

INSERT INTO results (compound, result) VALUES
  ('CCc1nc2c(C)cc(C)nc2n1Cc1ccc(/C=C/CN2CCN(CCCN(C)C)CC2)cc1 [Example 59, dihydrochloride]', 6.64),
  ('CCc1nc2c(C)cc(C)nc2n1Cc1ccc(C(=O)NCCCCN2CCCCCC2)cc1 [Example 100]', 6.31);

Okay, now this compound:
Fill blank: measured pIC50 of the compound CCc1nc2c(C)cc(C)nc2n1Cc1ccc(/C=C/CN2CCN(C3CC3)CC2)cc1 [Example 47, dihydrochloride] is ____.
6.39
